# tested_on: T1, native human ApoC3 (human, UniProt P02656 21-99)
# T1 construct: also called nhuApoC3; native huApoC3
# protocol_summary: SPR, IgG1 over ApoC3 on CM5 chip, pH 5.5
measurement_kind: kon

[
  {
    "binder": "5E5VH5VH12_VLWT human IgG1 (antibody, V domains shown) VH: QLQLVESGGGLVQPGGSLRLSCAASGFTFGTYSMRWVRQVPRKALEWVSSIHTDGGGTAYRDSVKGRFTISRDNAKNTLYLQMNNLKPEDTAIYYCVIHGYSDWGQGTQVTVSS VL: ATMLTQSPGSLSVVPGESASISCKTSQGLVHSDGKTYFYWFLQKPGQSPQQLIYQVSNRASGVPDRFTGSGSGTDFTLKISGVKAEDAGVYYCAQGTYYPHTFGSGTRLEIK",
    "measurement_kind": "kon",
    "measured_result": "156000 M⁻¹ s⁻¹"
  },
  {
    "binder": "5E5VH5_VLWT human IgG1 (antibody, V domains shown) VH: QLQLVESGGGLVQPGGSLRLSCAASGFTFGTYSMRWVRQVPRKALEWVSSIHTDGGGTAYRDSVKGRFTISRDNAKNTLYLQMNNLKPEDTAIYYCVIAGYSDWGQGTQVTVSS VL: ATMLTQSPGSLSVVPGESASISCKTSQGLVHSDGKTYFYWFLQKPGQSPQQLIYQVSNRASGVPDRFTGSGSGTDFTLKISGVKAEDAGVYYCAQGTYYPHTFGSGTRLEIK",
    "measurement_kind": "kon",
    "measured_result": "155000 M⁻¹ s⁻¹"
  }
]
